- assayedTarget: T1, human Y2 receptor (human, UniProt P49146 1-381)
- T1 sequence (looked up): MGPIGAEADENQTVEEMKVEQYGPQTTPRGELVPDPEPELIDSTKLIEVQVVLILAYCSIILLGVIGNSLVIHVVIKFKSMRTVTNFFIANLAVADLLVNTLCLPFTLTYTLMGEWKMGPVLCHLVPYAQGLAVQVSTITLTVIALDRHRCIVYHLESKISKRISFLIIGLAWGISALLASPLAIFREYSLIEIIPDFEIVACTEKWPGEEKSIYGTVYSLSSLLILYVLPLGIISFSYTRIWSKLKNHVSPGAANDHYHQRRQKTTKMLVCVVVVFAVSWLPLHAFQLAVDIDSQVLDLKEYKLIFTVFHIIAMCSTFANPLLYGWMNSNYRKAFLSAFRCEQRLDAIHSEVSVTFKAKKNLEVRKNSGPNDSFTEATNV
- testDescription: cell-based or functional assay
Starred links: 1 amine or outer side, 2 acyl side, 3 side chain; linkers in the order of their positions; H or OH if unused. Non-standard residues stand in square brackets, D forms with d. Phe(3R-OH) = O=C([C@@H](N[*:1])[C@H](O[*:3])c1ccccc1)[*:2]; Cha = N[C@@H](CC1CCCCC1)C(=O)O; Aib = CC(C)(N)C(=O)O
experimentalReadout: GBA EC50 Ratio (vs PYY(3-36)), [35S]GTPγS (ratio)

INSERT INTO measurements (binder, unitstext, numericreadout) VALUES
  ('Ac-[dT][dP]RH[Cha][Cha]NL[Aib]TRQR[Cha]-NH2 (SMILES CC(=O)N[C@@H](C(=O)N1CCC[C@@H]1C(=O)N[C@@H](CCCNC(=N)N)C(=O)N[C@@H](Cc1c[nH]cn1)C(=O)N[C@@H](CC1CCCCC1)C(=O)N[C@@H](CC1CCCCC1)C(=O)N[C@@H](CC(N)=O)C(=O)N[C@@H](CC(C)C)C(=O)NC(C)(C)C(=O)N[C@H](C(=O)N[C@@H](CCCNC(=N)N)C(=O)N[C@@H](CCC(N)=O)C(=O)N[C@@H](CCCNC(=N)N)C(=O)N[C@@H](CC1CCCCC1)C(N)=O)[C@@H](C)O)[C@H](C)O, also called compound No. 158) [Ac-[D-Thr23, D-Pro24, Cha27,28,36, Aib31]-PYY(23-36)]', 'ratio', 2.6),
  ('Ac-S[dP]RH[Cha][Cha]NL[Aib]TRQR[Phe(3R-OH)]-NH2 (SMILES CC(=O)N[C@@H](CO)C(=O)N1CCC[C@@H]1C(=O)N[C@@H](CCCNC(=N)N)C(=O)N[C@@H](Cc1c[nH]cn1)C(=O)N[C@@H](CC1CCCCC1)C(=O)N[C@@H](CC1CCCCC1)C(=O)N[C@@H](CC(N)=O)C(=O)N[C@@H](CC(C)C)C(=O)NC(C)(C)C(=O)N[C@H](C(=O)N[C@@H](CCCNC(=N)N)C(=O)N[C@@H](CCC(N)=O)C(=O)N[C@@H](CCCNC(=N)N)C(=O)N[C@H](C(N)=O)[C@H](O)c1ccccc1)[C@@H](C)O, also called compound No. 200) [Ac-[D-Pro24, Cha27,28, Aib31, threo-PhSer36]-PYY(23-36)]', 'ratio', 10);
